Biological target: UniProtKB P04062
Sequence (P04062 40-536): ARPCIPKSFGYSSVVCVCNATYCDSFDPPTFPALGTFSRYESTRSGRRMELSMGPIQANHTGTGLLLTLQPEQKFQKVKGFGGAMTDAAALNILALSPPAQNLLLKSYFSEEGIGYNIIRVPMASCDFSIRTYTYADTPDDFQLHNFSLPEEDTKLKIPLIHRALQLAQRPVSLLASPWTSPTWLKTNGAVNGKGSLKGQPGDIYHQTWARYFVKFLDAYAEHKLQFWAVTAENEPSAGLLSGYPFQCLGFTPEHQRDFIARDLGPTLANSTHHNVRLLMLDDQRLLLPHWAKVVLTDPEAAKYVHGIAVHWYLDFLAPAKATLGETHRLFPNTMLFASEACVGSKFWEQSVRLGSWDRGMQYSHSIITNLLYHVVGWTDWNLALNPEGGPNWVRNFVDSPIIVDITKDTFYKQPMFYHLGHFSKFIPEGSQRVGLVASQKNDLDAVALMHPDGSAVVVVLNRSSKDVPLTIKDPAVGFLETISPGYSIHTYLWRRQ
Experiment: Glucocerebrosidase activity assay with blue substrate (4MU-Glc)
Assay type: biochemical
Details: Table 2; additional compounds, tested as described in Example 2
Each entry falls in a class defined on AC50; the bands are one: < 3 µM; two: ≥ 3 µM and < 6 µM; three: ≥ 6 µM

q: Hi there! Could you help me figure out the category for c1ccc(OC2CN(c3nc(-c4cccnc4)nc4ccccc34)C2)cc1 please?
a: two

q: Hi there! Could you help me figure out the category for CCCCCC(=O)NCc1ccc(OCCN(C)c2nc(-c3cccnc3)nc3c2cnn3CC)cc1 please?
a: one

q: Hi there! Could you help me figure out the category for CCn1ncc2c(N(C)CCOc3ccc(CNC(C)=O)cc3)nc(-c3cccnc3)nc21 please?
a: three

q: Hi there! Could you help me figure out the category for CCn1ncc2c(N3CC[C@H](Oc4ccccc4)C3)nc(-c3cccnc3)nc21 please?
a: three

q: Hi there! Could you help me figure out the category for CCc1ccc(-c2nc(N(C)CCOc3ccc(CN)cc3)c3cnn(CC)c3n2)cc1 please?
a: three

q: Hi there! Could you help me figure out the category for CCc1cncc(-c2nc(N(C)CCOc3ccccc3)c3ccccc3n2)c1 please?
a: two

q: Hi there! Could you help me figure out the category for c1ccc(O[C@H]2CCN(c3nc(-c4cccnc4)nc4ccccc34)C2)cc1 please?
a: two

q: Hi there! Could you help me figure out the category for CCn1ncc2c(N(C)CCOc3ccc(CN)cc3)nc(-c3ccsc3)nc21 please?
a: one

q: Hi there! Could you help me figure out the category for c1cncc(-c2nc(N3CCc4cccnc4C3)c3ccccc3n2)c1 please?
a: three

q: Hi there! Could you help me figure out the category for CN(CCOc1ccccc1)c1nc(-c2cnc3ccccc3c2)nc2ccccc12 please?
a: one

Values compiled from patent US12291533B2.
